molecular target: Recombinant wild type LRRK2 protein (Homo sapiens (Human), UniProt Q5S007); experiment: LRRK2 kinase activity, LanthaScreen TR-FRET assay (wild type); settings: LRRKtide 400 nM, 25 μM ATP, 60 min; read-out: LRRK2 WT IC50
Sequence (Q5S007 whole entry): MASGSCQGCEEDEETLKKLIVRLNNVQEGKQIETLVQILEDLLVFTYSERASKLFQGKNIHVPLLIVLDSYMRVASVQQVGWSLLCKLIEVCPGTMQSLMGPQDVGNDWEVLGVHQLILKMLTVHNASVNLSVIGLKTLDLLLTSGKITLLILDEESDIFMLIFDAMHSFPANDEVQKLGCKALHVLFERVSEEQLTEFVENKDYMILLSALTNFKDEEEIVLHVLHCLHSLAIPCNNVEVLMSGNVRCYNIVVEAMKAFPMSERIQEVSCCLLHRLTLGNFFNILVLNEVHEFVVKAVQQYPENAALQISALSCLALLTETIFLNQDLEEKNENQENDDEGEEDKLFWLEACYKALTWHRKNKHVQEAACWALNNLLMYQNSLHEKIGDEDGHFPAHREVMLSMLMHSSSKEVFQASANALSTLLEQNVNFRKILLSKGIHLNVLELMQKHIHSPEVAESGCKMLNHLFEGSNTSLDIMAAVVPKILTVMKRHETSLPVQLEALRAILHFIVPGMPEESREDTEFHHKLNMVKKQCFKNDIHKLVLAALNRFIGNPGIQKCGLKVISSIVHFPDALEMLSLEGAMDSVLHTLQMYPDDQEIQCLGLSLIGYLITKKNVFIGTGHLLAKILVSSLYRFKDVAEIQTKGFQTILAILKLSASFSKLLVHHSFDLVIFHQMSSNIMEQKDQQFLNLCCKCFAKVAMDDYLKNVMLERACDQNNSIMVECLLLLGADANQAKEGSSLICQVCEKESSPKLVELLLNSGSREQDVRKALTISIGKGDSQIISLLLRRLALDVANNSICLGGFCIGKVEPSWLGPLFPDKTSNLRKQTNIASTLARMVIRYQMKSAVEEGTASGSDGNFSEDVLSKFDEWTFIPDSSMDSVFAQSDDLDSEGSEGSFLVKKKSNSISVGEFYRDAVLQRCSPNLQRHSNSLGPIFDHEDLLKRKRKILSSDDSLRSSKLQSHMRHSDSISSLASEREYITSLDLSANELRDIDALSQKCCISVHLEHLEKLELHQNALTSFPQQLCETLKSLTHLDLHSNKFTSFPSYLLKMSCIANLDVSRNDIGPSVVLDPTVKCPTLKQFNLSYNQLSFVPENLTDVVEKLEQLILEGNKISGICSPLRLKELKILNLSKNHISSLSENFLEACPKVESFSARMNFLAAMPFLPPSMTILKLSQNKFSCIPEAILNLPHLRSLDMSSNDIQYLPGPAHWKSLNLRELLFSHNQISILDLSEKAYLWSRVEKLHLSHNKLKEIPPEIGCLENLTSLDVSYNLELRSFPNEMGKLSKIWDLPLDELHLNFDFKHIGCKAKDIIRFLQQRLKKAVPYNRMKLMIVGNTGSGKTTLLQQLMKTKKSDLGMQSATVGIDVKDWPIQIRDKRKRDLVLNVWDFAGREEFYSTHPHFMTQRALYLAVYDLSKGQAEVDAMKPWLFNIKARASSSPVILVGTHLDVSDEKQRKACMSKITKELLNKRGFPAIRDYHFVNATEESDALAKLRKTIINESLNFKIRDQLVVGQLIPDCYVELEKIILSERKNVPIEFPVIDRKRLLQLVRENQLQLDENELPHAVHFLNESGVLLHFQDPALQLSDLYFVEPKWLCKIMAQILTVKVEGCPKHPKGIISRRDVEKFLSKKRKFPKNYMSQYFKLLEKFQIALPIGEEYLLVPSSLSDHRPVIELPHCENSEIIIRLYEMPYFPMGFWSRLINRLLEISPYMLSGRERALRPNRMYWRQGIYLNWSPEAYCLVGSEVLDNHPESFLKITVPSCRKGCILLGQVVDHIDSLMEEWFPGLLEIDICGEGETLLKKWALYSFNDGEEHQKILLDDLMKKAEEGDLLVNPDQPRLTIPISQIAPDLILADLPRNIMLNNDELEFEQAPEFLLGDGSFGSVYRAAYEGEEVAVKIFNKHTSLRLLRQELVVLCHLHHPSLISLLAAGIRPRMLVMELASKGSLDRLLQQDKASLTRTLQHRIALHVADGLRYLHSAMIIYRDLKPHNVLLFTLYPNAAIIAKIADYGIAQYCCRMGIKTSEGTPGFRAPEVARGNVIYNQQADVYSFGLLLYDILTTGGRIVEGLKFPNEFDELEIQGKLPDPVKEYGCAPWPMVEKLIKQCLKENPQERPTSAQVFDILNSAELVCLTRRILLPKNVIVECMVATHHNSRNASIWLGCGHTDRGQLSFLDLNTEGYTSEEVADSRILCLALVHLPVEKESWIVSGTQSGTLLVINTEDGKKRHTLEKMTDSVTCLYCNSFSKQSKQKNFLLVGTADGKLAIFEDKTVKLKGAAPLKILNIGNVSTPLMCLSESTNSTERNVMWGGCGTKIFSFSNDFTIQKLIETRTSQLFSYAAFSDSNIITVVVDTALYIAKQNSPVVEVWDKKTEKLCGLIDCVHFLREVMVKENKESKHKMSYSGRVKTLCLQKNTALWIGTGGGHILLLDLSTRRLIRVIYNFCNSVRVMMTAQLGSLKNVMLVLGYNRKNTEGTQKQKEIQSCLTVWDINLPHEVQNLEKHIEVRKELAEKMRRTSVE
pIC50: −log10 of the molar value.
Assay metric: pIC50

Query: So what pIC50 did Cc1nc(C#N)ccc1C(=O)Nc1ccc2[nH]nc(-c3ccoc3)c2c1 [Example 8] get with Recombinant wild type LRRK2 protein (Homo sapiens (Human), UniProt Q5S007)?
Response: 6.00 to 7.00

Query: Likewise for Cc1ncc(-c2n[nH]c3ccc(NC(=O)c4ncc(C#N)c(C)c4C)cc23)o1 [Example 174] ?
Response: > 7.00

Query: Likewise for Cc1cc(C#N)cnc1C(=O)Nc1ccc2[nH]nc(N3CCC3)c2c1 [Example 253] ?
Response: 5.00 to 6.00

Query: Likewise for COc1cc(-c2n[nH]c3ccc(NC(=O)c4ncc(C#N)c(C)c4C)cc23)ccn1 [Example 159] ?
Response: > 7.00

Query: Likewise for Cc1nc(C(=O)Nc2ccc3[nH]nc(-c4cnoc4)c3c2)c(C)c(C)c1C#N [Example 210] ?
Response: > 7.00

Query: Likewise for N#Cc1cnc(C(=O)Nc2ccc3[nH]nc(-c4cnoc4)c3c2)c2c1CCC2 [Example 218] ?
Response: 5.00 to 6.00

Query: Likewise for Cc1cc(C#N)cnc1C(=O)Nc1ccc2[nH]nc(-c3ccc(C(=O)N4CCOCC4)cc3)c2c1 [Example 108] ?
Response: 6.00 to 7.00

Query: Likewise for N#Cc1ccc(C(=O)Nc2ccc3[nH]nc(-c4ccoc4)c3c2)c(Br)c1 [Example 2] ?
Response: > 7.00

Query: Likewise for Cc1c(C#N)nn(C)c1C(=O)Nc1ccc2[nH]nc(-c3cnoc3)c2c1 [Example 196] ?
Response: 6.00 to 7.00

Query: Likewise for Cc1n[nH]c(C#N)c1C(=O)Nc1ccc2[nH]nc(-c3ccoc3)c2c1 [Example 137] ?
Response: > 7.00

Query: Likewise for Cc1nc(C(=O)Nc2ccc3[nH]nc(C4CC4)c3c2)c(Cl)c(C)c1C#N [Example 283] ?
Response: 6.00 to 7.00

Query: Likewise for N#Cc1cnc(C(=O)Nc2ccc3[nH]nc(-c4ccoc4)c3c2)c(Br)c1 [Example 138] ?
Response: > 7.00

Query: Likewise for N#Cc1cnc(C(=O)Nc2ccc3[nH]nc(-c4ccoc4)c3c2)c(O)c1 [Example 154] ?
Response: 6.00 to 7.00

Query: Likewise for Cc1ncc(C#N)nc1C(=O)Nc1ccc2[nH]nc(-c3ccoc3)c2c1 [Example 147] ?
Response: > 7.00

Query: Likewise for Cc1c(C(=O)Nc2ccc3[nH]nc(Br)c3c2)nc(Cl)c(C#N)c1C [Example 324] ?
Response: > 7.00

Query: Likewise for N#Cc1ncc(C(=O)Nc2ccc3[nH]nc(-c4ccncc4)c3c2)cn1 [Example 25] ?
Response: 6.00 to 7.00

Query: Likewise for Cc1c(C#N)nn(C)c1C(=O)Nc1ccc2[nH]nc(-c3ccoc3)c2c1 [Example 92] ?
Response: 6.00 to 7.00

Query: Likewise for Cc1nc(C(=O)Nc2ccc3[nH]nc(C)c3c2)c(C)c(C)c1C#N [Example 325] ?
Response: 5.00 to 6.00

Query: Likewise for Cc1cc(C#N)cnc1C(=O)Nc1ccc2[nH]nc(-c3ccccc3)c2c1 [Example 40] ?
Response: 6.00 to 7.00

Query: Likewise for Cc1cc(C#N)cnc1C(=O)Nc1ccc2[nH]nc(N3CC(F)(F)C3)c2c1 [Example 254] ?
Response: 5.00 to 6.00

Query: Likewise for CCc1n[nH]c2ccc(NC(=O)c3nc(Cl)c(C#N)c(C)c3C)cc12 [Example 271] ?
Response: > 7.00

Query: Likewise for Cc1c(C#N)cccc1C(=O)Nc1cc(C)c2[nH]nc(-c3ccoc3)c2c1 [Example 88] ?
Response: 5.00 to 6.00

Query: Likewise for Cc1c(C#N)cnc(C(=O)Nc2ccc3[nH]nc(-c4cncs4)c3c2)c1C [Example 227] ?
Response: > 7.00

Query: Likewise for Cc1cc(C#N)cnc1C(=O)Nc1ccc2[nH]nc(-c3cn(C)nn3)c2c1 [Example 241] ?
Response: 6.00 to 7.00

Query: Likewise for N#Cc1ccnc(C(=O)Nc2ccc3[nH]nc(-c4ccoc4)c3c2)n1 [Example 132] ?
Response: > 7.00

Query: Likewise for Cc1c(C(=O)Nc2ccc3[nH]nc(C4CC4)c3c2)nc(Br)c(C#N)c1C [Example 330] ?
Response: > 7.00

Query: Likewise for N#Cc1cnc(C(=O)Nc2ccc3[nH]nc(-c4ccoc4)c3c2)c(Cl)c1 [Example 95] ?
Response: > 7.00

Query: Likewise for COc1cccc(-c2n[nH]c3ccc(NC(=O)c4ncc(C#N)cc4C4CC4)cc23)c1 [Example 311] ?
Response: 6.00 to 7.00

Query: Likewise for N#Cc1cnc(C(=O)Nc2ccc3[nH]nc(-c4ccoc4)c3c2)s1 [Example 65] ?
Response: > 7.00

Query: Likewise for N#Cc1cccc(C(=O)Nc2ccc3[nH]nc(-c4ccoc4)c3c2)c1F [Example 77] ?
Response: > 7.00

Query: Likewise for Cc1c(C(=O)Nc2ccc3[nH]nc(-c4cnn(C(F)F)c4)c3c2)nc(Cl)c(C#N)c1C [Example 175] ?
Response: > 7.00

Query: Likewise for Cc1c(C(=O)Nc2ccc3[nH]nc(C4CC4)c3c2)nc(Cl)c(C#N)c1C [Example 303] ?
Response: > 7.00

Query: Likewise for Cc1c(C(=O)Nc2ccc3[nH]nc(-c4cnco4)c3c2)cc(C#N)c(=O)n1C [Example 213] ?
Response: > 7.00

Query: Likewise for Cc1c(C(=O)Nc2ccc3[nH]nc(-c4cnoc4)c3c2)nc(Cl)c(C#N)c1C [Example 216] ?
Response: > 7.00

Query: Likewise for Cn1cc(C(=O)Nc2ccc3[nH]nc(-c4cnco4)c3c2)cc(C#N)c1=O [Example 224] ?
Response: > 7.00

====

Target: Recombinant G2019S-LRRK2 protein (Homo sapiens (Human), UniProt Q5S007, G2019S)
Sequence (Q5S007 whole entry G2019S): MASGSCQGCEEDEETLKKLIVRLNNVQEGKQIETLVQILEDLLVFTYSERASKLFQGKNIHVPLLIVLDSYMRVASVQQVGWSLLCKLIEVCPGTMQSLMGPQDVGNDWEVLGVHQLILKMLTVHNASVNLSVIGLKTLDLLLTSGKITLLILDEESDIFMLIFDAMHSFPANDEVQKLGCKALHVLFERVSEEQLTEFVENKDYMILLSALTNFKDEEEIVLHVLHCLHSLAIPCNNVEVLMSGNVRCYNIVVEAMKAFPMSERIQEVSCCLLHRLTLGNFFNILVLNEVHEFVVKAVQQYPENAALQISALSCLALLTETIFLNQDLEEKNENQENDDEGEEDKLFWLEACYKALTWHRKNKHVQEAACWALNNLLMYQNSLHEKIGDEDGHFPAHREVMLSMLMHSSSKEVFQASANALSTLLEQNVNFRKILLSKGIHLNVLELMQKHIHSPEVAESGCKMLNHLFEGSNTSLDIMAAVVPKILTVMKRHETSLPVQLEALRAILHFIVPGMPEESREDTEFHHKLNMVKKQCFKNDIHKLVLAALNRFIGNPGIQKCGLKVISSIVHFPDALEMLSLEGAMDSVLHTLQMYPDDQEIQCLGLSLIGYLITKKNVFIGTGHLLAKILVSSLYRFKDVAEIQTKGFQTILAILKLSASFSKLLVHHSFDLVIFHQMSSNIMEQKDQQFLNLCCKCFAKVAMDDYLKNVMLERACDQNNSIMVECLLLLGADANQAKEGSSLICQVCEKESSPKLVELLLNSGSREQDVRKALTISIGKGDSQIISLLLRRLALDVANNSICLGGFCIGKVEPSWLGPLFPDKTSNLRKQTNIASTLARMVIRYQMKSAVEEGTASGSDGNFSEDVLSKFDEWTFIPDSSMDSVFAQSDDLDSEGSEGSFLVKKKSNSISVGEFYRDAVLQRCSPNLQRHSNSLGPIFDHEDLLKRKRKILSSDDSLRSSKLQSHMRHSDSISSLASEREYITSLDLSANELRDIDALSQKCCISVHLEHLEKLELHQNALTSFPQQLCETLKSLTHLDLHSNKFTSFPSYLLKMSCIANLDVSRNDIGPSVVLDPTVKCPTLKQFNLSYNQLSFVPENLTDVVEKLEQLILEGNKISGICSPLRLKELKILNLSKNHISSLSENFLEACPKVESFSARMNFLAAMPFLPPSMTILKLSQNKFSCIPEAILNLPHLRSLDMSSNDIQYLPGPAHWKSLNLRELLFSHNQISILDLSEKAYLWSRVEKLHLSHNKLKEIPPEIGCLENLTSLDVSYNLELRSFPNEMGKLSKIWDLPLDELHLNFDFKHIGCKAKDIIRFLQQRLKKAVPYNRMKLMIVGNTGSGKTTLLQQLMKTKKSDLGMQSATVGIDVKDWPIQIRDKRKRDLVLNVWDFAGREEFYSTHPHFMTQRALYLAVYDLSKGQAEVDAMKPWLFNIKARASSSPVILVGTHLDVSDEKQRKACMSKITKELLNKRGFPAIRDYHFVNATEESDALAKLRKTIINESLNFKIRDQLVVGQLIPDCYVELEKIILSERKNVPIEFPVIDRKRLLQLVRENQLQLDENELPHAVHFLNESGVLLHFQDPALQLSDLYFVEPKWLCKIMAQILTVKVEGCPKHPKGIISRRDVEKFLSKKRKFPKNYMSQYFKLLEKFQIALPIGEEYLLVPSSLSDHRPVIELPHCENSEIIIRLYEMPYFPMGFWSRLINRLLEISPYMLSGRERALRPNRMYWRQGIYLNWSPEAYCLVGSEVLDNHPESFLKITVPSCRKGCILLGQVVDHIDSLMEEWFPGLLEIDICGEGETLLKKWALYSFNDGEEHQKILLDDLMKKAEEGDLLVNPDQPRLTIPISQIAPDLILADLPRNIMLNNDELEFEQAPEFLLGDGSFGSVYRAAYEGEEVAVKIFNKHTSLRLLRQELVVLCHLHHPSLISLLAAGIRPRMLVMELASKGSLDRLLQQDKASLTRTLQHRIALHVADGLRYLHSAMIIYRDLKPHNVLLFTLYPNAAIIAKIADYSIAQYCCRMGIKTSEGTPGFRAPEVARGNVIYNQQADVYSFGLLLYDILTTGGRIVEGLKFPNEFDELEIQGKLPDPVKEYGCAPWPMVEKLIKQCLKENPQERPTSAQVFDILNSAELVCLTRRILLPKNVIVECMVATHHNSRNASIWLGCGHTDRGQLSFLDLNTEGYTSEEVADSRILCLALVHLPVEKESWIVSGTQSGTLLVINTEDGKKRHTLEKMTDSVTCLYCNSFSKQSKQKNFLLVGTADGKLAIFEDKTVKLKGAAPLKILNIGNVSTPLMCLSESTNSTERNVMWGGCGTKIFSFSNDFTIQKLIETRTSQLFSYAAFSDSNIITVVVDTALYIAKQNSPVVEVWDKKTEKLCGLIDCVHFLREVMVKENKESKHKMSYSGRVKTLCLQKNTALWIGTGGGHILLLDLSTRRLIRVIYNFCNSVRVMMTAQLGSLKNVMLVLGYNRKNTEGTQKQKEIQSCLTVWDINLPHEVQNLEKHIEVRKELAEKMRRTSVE
Experiment: LRRK2 kinase activity, LanthaScreen TR-FRET assay (G2019S)
Settings: LRRKtide 400 nM, 25 μM ATP, 60 min
Protocol: LRRK2 kinase activity was measured using a LanthaScreen™ Kinase Activity Assay from ThermoFisher Scientific. Recombinant wild type or G2019S-LRRK2 protein (Life Technologies, PR8604B or PV4881, respectively), was incubated with a fluorescein-labeled peptide substrate called LRRKtide that is based upon ezrin/radixin/moesin (ERM) (Life Technologies, PV4901) in the presence of ATP and serially diluted compound. […]
pIC50: −log10 of the molar value.
Assay metric: pIC50

Query: GET /values?readout=pIC50&item= N#Cc1ccc(F)c(C(=O)Nc2ccc3[nH]nc(-c4ccoc4)c3c2)c1
Response: > 7.00

Query: Likewise for Cc1cc(C#N)cnc1C(=O)Nc1ccc2[nH]nc(-c3ccnc(N4C[C@H](C)O[C@@H](C)C4)c3)c2c1 ?
Response: > 7.00

Query: Likewise for Cc1cc(C#N)cc(C)c1C(=O)Nc1ccc2[nH]nc(-c3ccoc3)c2c1 ?
Response: > 7.00

Query: Likewise for N#Cc1cncc(C(=O)Nc2ccc3[nH]nc(-c4ccncc4)c3c2)c1 ?
Response: 6.00 to 7.00

Query: Likewise for N#Cc1ccc(C(=O)Nc2ccc3[nH]nc(-c4ccoc4)c3c2)c2ncccc12 ?
Response: > 7.00

Query: Likewise for Cc1ncc(-c2n[nH]c3ccc(NC(=O)c4ncc(C#N)c(C)c4C)cc23)o1 ?
Response: > 7.00

Query: Likewise for COc1cc(-c2n[nH]c3ccc(NC(=O)c4ncc(C#N)c(C)c4C)cc23)ccn1 ?
Response: > 7.00

Query: Likewise for Cc1c(C#N)cnc(C(=O)Nc2ccc3[nH]nc(-c4cnn(C)c4)c3c2)c1C ?
Response: > 7.00

====

molecular target: Recombinant G2019S-LRRK2 protein (Homo sapiens (Human), UniProt Q5S007, G2019S); test: LRRK2 kinase activity, LanthaScreen TR-FRET assay (G2019S); settings: LRRKtide 400 nM, 25 μM ATP, 60 min
Assay metric: IC50

Query: GET /values?readout=IC50&item= Cc1cc(C#N)cnc1C(=O)Nc1ccc2[nH]nc(-c3ccc(C(F)(F)F)cc3)c2c1
Response: 100 to 1000 nM

Query: Likewise for Cc1ccc(C#N)nc1C(=O)Nc1ccc2[nH]nc(-c3ccoc3)c2c1 ?
Response: < 100 nM

Query: Likewise for Cc1c(C#N)nn(C)c1C(=O)Nc1ccc2[nH]nc(-c3cnco3)c2c1 ?
Response: 100 to 1000 nM

Query: Likewise for Cc1cc(C#N)ccc1C(=O)Nc1ccc2[nH]nc(-c3ccoc3)c2c1 ?
Response: < 100 nM

====

target: Recombinant wild type LRRK2 protein (Homo sapiens (Human), UniProt Q5S007); test: LRRK2 kinase activity, LanthaScreen TR-FRET assay (wild type); conditions: LRRKtide 400 nM, 25 μM ATP, 60 min; read-out: LRRK2 WT IC50
Assay metric: IC50

Query: GET /values?readout=IC50&item= N#Cc1cnc(C(=O)Nc2ccc3[nH]nc(-c4ccoc4)c3c2)cc1O
Response: 1000 to 10000 nM

Query: Likewise for COc1cccc(-c2n[nH]c3ccc(NC(=O)c4ncc(C#N)cc4C)cc23)c1 ?
Response: 100 to 1000 nM

Query: Likewise for Cc1cc(C(=O)Nc2ccc3[nH]nc(-c4ccoc4)c3c2)ncc1C#N ?
Response: 100 to 1000 nM

Query: Likewise for Cc1cc(-c2n[nH]c3ccc(NC(=O)c4ncc(C#N)cc4C)cc23)ccc1F ?
Response: 100 to 1000 nM

Query: Likewise for COc1ccccc1-c1n[nH]c2ccc(NC(=O)c3ncc(C#N)cc3C)cc12 ?
Response: 1000 to 10000 nM

Query: Likewise for Cc1c(C#N)cnc(C(=O)Nc2ccc3[nH]nc(-c4cnco4)c3c2)c1C ?
Response: < 100 nM

Query: Likewise for Cc1cc(C#N)cnc1C(=O)Nc1ccc2[nH]nc(-c3ccc(C#N)s3)c2c1 ?
Response: 100 to 1000 nM

Query: Likewise for Cc1cc(-c2n[nH]c3ccc(NC(=O)c4ncc(C#N)c(C)c4C)cc23)cc(C)n1 ?
Response: < 100 nM
